Measured growth, listed per entry for reference.
System: OVCAR-3 ovarian
experimentSummary: NCI-60 one-dose screen, 48 h (100 = growth as untreated, 0 = no growth, -100 = all killed)
conditionDescription: 10 µM unless noted
This is part of a sample that, as a whole, favours compounds with a hit. Of some 83,000 tested, about 20% had one in any assay.
Answer with a number only, understood to be in %.

* COc1cc(OC)c(/C=C/C(=O)c2c(OC)cccc2OC)c(OC)c1 | -42.2
* COc1cc2c(cc1OCCCN1CCN(CCCOc3cc4c(cc3OC)C(=O)N3CCC[C@H]3C=N4)CC1)C=CC(C)(C)O2 | -75.6
* O=C(Nc1cccc(Cl)c1)Nc1cccc(Cn2c(=O)[nH]c3ccc(Oc4ncccn4)cc3c2=O)c1 | 33.5
* COc1ccc(-c2cc(-c3cc(OC)c(OC)c(OC)c3)c(C#N)c(=O)n2CCCCC(=O)NO)cc1 | 62.1
* CCCCCCCCCCCCCCCCCCOc1ccccc1CC(=O)OCC[N+](C)(C)C | 16.5

Param readout = growth; param system = OVCAR-3 ovarian; param query = CCOC(=O)C1=C(c2ccccc2)N=C2SC=C(c3ccc(Cl)cc3)N2C1c1ccc(Cl)cc1 (centres undefined) ; response: value
65.8

Param readout = growth; param system = OVCAR-3 ovarian; param query = O=C(/C=C/c1cccs1)Nc1ncc(Cc2ccccc2F)s1 ; response: value
-6.37

Param readout = growth; param system = OVCAR-3 ovarian; param query = CC1CN(S(=O)(=O)c2oc(-c3ccc(Cl)cc3)nc2C#N)CC(C)O1 (centres undefined) ; response: value
34.4

Param readout = growth; param system = OVCAR-3 ovarian; param query = O=C(Nc1ccccc1O)c1ccc(CNC(=O)c2sccc2Nc2ccnc(C(F)(F)F)c2)cc1 ; response: value
41.3

* * *

Tested on: DU-145 prostate
experimentSummary: NCI-60 one-dose screen, 48 h (100 = growth as untreated, 0 = no growth, -100 = all killed)
conditionDescription: 10 µM unless noted
Protocol: Cells are grown in 96 well plates and exposed to the test compound for 48 hours. Compounds are tested at a single concentration, which is 10^-5 M for most compounds. The reported endpoint is percent growth (GI% or GIPRCNT), where numbers from 0 - 100% represent growth inhibition, and numbers from -100% - 0 represent cell death. For example, a value of 40 represents 60% growth inhibition. A value of 0 means no net growth occurred over the course of the experiment. […]
The panel holds about 83,000 compounds, 20% with a hit somewhere; the sample as a whole holds those more often.
Measured growth, listed per entry for reference.
Answer with a number only, understood to be in %.

What measured growth goes with COc1ccc(/C=C/C(=O)c2ccc(Nc3ccnc4cc(Cl)ccc34)cc2)cc1 ?
103

What measured growth goes with O=c1c2cnn(-c3ccccc3)c2n2c(CN3CCOCC3)nnc2n1-c1ccccc1 ?
105

What measured growth goes with COc1ccc(C(=O)C/C(=C\c2ccc(Cl)cc2)C(=O)NCc2ccccc2)cc1 ?
103

What measured growth goes with NS(=O)(=O)c1ccccc1NC(=O)Nc1nc2ccccc2s1 ?
106

What measured growth goes with CSc1nc(N)c(NS(=O)(=O)c2ccc(C(C)=O)cc2)c(=O)[nH]1 ?
110

* * *

Test system: SF-295 CNS
experimentSummary: NCI-60 one-dose screen, 48 h (100 = growth as untreated, 0 = no growth, -100 = all killed)
conditionDescription: 10 µM unless noted
About 83,000 compounds went through this panel and 20% of them were active in at least one assay; those are over-represented in the sample as a whole.
Measured growth, listed per entry for reference.
Answer with a number only, understood to be in %.

- COc1ccc(-c2ccc(=O)oc2-c2cc(OC)c(OC)c(OC)c2)cc1O: -21.7
- O=C(CN1C(=O)NC2NC(=O)NC21)N/N=C/c1ccccc1[N+](=O)[O-] (stereo not given): 105

What measured growth goes with C=C(C)[C@@H]1CC[C@]2(C(=O)N3CCOCC3)CC[C@]3(C)[C@H](CC[C@@H]4[C@@]5(C)C/C(=C/c6ccncc6)C(=O)C(C)(C)[C@@H]5CC[C@]43C)[C@@H]12 ?
85.9

What measured growth goes with O=C1c2c(c3c4ccccc4[nH]c3c3ccc4ccccc4c23)C(=O)N1CCN1CCNCC1 ?
89.4

What measured growth goes with COc1cc2c(c(OC)c1OC)CCC(c1cccc(NC(=O)c3ccc(Br)cc3)c1)O2 (stereo not given) ?
66.9

What measured growth goes with C#CCOc1cccc(Nc2ncnc3cc(NC(=O)C=C)ccc23)c1 ?
45

What measured growth goes with CC(=O)Oc1ccc(C)cc1C ?
106

Hey, just so you know, these numbers are from PubChem BioAssay (NCI).
